test.name: BET inhibitor-based combinations targeting novel dependencies in MECOM-rearranged (r) AML: UCSD-AML1 cell line (AID 2202235); further: nearly all actives have a fitted effect of over 40% in size; further: potency means the concentration at half of the fitted maximal effect
run.parameters: UCSD-AML1 AML cells viability, CellTiter-Glo, 48 h; series mostly up to 46 µM
Records with an inconclusive call do not appear. Calls of active or inactive are those of the source. The call rests on the fitted dose curve; in most records, active means well fitted inhibition curve with a large enough effect; inconclusive means small, poorly fitted or top-dose-only effect; inactive means no such curve, though single readings can be large or run the other way.
recorded.endpoint: Potency

{"molecule": "CN(CCOc1ccc(CC2SC(=O)NC2=O)cc1)c1ccccn1 (stereo not given)", "readout.value": "inactive"}
{"molecule": "NC(=O)[C@@H](CCC(F)(F)F)N(Cc1ccc(-c2ncon2)cc1F)S(=O)(=O)c1ccc(Cl)cc1", "readout.value": "inactive"}
{"molecule": "COc1ccc(-c2cc3nccn3c(Nc3ncccc3C(N)=O)n2)cc1OC", "readout.value": "6.61 µM (active)"}
{"molecule": "c1ccc([C@H]2CN3CCSC3=N2)cc1", "readout.value": "inactive"}
{"molecule": "O=C(Nc1nnc(-c2ccco2)o1)c1cc(-c2ccccc2)nc2ccccc12", "readout.value": "8.33 µM (active)"}

* * *

Entries and their Potency values follow.
test.name: BET inhibitor-based combinations targeting novel dependencies in MECOM-rearranged (r) AML: SET-2 cell line (AID 2202231); further: potency means the concentration at half of the fitted maximal effect; nearly all actives have a fitted effect of over 35% in size
run.parameters: SET-2 AML cells viability, CellTiter-Glo luminescence, 48 h
Method: Ecotropic viral insertion site 1 (EVI1) is located on chromosome 3q26.2 as part of the MECOM (MDS and EVI1 complex) locus. […] A collection of 2480 mechanistically annotated dugs (MIPE v5.0) was used to screen four 3q26.2 rearranged AML cell lines and three non-3q26.2 rearranged AML cell lines. […] Cell viability was determined by luminescence based, Cell Titer Glo assay (Promega). […] Luminescence readings were taken using a Viewlux (PerkinElmer) with a 2 s exposure time per plate. […]
Inconclusive results are not listed. The source made the active and inactive calls. Calls come from the whole dose curve; as a rule, active = well fitted inhibition curve with a large enough effect; inconclusive = small, poorly fitted or top-dose-only effect; inactive = no such curve, though single readings can be large or run the other way.

{"compound": "CC1=C(CO)C(=O)O[C@@H]([C@@H](C)[C@H]2CC[C@H]3[C@@H]4C[C@H]5O[C@]56[C@@H](O)C=CC(=O)[C@]6(C)[C@H]4CC[C@]23C)C1", "Potency": "0.59 µM (active)"}
{"compound": "CC(=O)Nc1nc(C)c(-c2ccc(Cl)c(S(=O)(=O)NCCO)c2)s1", "Potency": "14.8 µM (active)"}
{"compound": "CC(=O)Nc1ccc([C@H](C)C(=O)Nc2ncc(C(C)C)s2)cc1", "Potency": "3.32 µM (active)"}
{"compound": "Cc1ccc(C(C)(O)c2nc3ccccc3s2)c(C)c1 (stereo not given)", "Potency": "13.2 µM (active)"}
{"compound": "Cc1ccc([N+](=O)[O-])cc1S(=O)(=O)N(C)/N=C/c1cnc2ccc(Br)cn12", "Potency": "0.166 µM (active)"}
{"compound": "O=C(NOCC1CC1)c1ccc(F)c(F)c1Nc1ccc(I)cc1Cl", "Potency": "23.5 µM (active)"}
{"compound": "NC(=O)c1cccc(-c2cc(Nc3ccc(OC(F)(F)F)cc3)ncn2)c1", "Potency": "20.9 µM (active)"}
{"compound": "Cc1cnc(-c2cnc(NCCNc3ccc(C#N)cn3)nc2-c2ccc(Cl)cc2Cl)[nH]1", "Potency": "14.8 µM (active)"}
{"compound": "Nc1cc(C(F)(F)F)c(-c2cc(N3CCOCC3)nc(N3CCOCC3)n2)cn1", "Potency": "4.17 µM (active)"}
{"compound": "CC[C@H]1CN2CCc3cc(OC)c(OC)cc3[C@@H]2C[C@@H]1C[C@H]1NCCc2cc(OC)c(OC)cc21", "Potency": "0.372 µM (active)"}
{"compound": "O=C(CCl)Nc1cccc(NC2=NS(=O)(=O)c3ccccc32)c1", "Potency": "26.3 µM (active)"}
{"compound": "CCNC(=O)C#Cc1ccc2c(C(=Nc3ccc(CN(C)C)cc3)c3ccccc3)c(O)[nH]c2c1", "Potency": "12.9 µM (active)"}
{"compound": "O=Nc1c(-c2c(O)[nH]c3cc(Br)ccc23)[nH]c2ccccc12", "Potency": "5.25 µM (active)"}
{"compound": "Nc1ncnc2c1c(-c1cccc(OCc3ccccc3)c1)cn2C1CC(CN2CCC2)C1 (stereo not given)", "Potency": "16.6 µM (active)"}
{"compound": "c1ccc(CNc2nc(NCc3ccccc3)c3ccccc3n2)cc1", "Potency": "16.6 µM (active)"}
{"compound": "CCS(=O)(=O)N1CCN(c2ccc(Nc3ncc(C(N)=O)c(NC4CC4)n3)cc2)CC1", "Potency": "4.17 µM (active)"}
{"compound": "Oc1c(Cl)cc(Cl)c2cccnc12", "Potency": "8.33 µM (active)"}
{"compound": "CCC(C)SSc1ncc[nH]1 (stereo not given)", "Potency": "11.8 µM (active)"}
{"compound": "FC(F)(F)c1ccc(Nc2nc(-c3c(C(F)(F)F)nc4ccccn34)cs2)cc1", "Potency": "0.833 µM (active)"}
{"compound": "Cn1c(=O)n(-c2ccc(C(C)(C)C#N)cc2)c2c3cc(-c4cnc5ccccc5c4)ccc3ncc21", "Potency": "0.17 µM (active)"}

* * *

test.name: BET inhibitor-based combinations targeting novel dependencies in MECOM-rearranged (r) AML: HNT-34 cell line (AID 2202234); further: nearly all actives have a fitted effect of over 35% in size; further: potency means the concentration at half of the fitted maximal effect
run.parameters: HNT-34 AML viability, CellTiter-Glo luminescence, 48 h; series mostly up to 46 µM
Records with an inconclusive call do not appear. Activity calls are given as the source filed them. Calls follow the shape of the dose curve; as a rule, active = well fitted inhibition curve with a large enough effect; inconclusive = small, poorly fitted or top-dose-only effect; inactive = no such curve, though single readings can be large or run the other way.

{"compound": "CN1CCN(Cc2ccc(NC(=O)Nc3ccc(Oc4cc(NC(=O)C5CC5)ncn4)cc3)cc2C(F)(F)F)CC1", "Potency": "0.0468 µM (active)"}
{"compound": "CN[C@@H]1CN(c2ccc3c(=O)c(C(=O)O)cn(-c4nccs4)c3n2)C[C@@H]1OC", "Potency": "1.15 µM (active)"}
{"compound": "CCC(C)N(C)C(=O)c1cc2ccccc2c(-c2ccccc2Cl)n1 (stereo not given)", "Potency": "inactive"}
{"compound": "CCc1nc(N)nc(N)c1-c1ccc(Cl)cc1", "Potency": "inactive"}
{"compound": "CN(C)CC(=O)N1CCC(c2ccc(NC(=O)c3ncc(C#N)[nH]3)c(C3=CCCCC3)c2)CC1", "Potency": "10.5 µM (active)"}
{"compound": "COc1cc(N2CCC(N3CCN(C)CC3)CC2)ccc1Nc1ncc(Cl)c(Nc2ccccc2P(C)(C)=O)n1", "Potency": "0.934 µM (active)"}
{"compound": "COc1cccc(-c2ccc(NC(=O)C3=C(C(=O)O)CCC3)c(F)c2)c1", "Potency": "inactive"}
{"compound": "NC(=O)c1ncn([C@@H]2O[C@H](CO)[C@@H](O)[C@H]2O)n1", "Potency": "16.6 µM (active)"}
{"compound": "Cn1cc(C2=C(c3c4n(c5ccccc35)CCC(CN)C4)C(=O)NC2=O)c2ccccc21 (stereo not given)", "Potency": "5.39 µM (active)"}
{"compound": "Cc1csc(NC(=O)c2sc3nc4c(c(C(F)(F)F)c3c2N)CCC4)n1", "Potency": "inactive"}

* * *

system.under.test: Cellular tumor antigen p53 (Homo sapiens) (UniProt P04637)
Sequence (P04637 whole entry, looked up): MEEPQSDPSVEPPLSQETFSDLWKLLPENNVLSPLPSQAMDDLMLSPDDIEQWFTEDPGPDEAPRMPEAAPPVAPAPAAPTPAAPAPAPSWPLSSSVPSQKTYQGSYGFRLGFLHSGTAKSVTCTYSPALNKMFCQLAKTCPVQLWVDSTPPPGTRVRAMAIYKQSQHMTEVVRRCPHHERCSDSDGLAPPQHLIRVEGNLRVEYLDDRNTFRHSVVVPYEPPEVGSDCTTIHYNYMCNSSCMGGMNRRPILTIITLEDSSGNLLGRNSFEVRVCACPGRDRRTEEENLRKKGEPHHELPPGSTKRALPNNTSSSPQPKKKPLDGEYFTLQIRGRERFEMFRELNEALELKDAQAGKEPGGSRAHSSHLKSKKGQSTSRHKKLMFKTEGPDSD
test.name: Primary qHTS for small molecule compounds that upregulate eGFP-tagged delta133p53alpha (in N-terminal) cells. (AID 2060322);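 further: cells pre-induced with doxycycline then dosed without doxycycline; 0% = DMSO vehicle and 100% = reference activator; nearly all actives have a fitted effect of over 75% in size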
run.parameters: NCI-H358 eGFP-delta133p53alpha fluorescence, 24 h; active compounds read high
Text: Assay Development and Screening Technology National Center for Advancing Translational Sciences (NCATS), National Institute of Health (NIH), Rockville, Maryland Cellular senescence (CS) is one of the hallmarks of aging and age-related diseases. […] Here we report the development and validation of a cell-based quantitative high throughput screening (qHTS) assay in 1,536-well format. […]
Inconclusive results are not listed.
Consider the following compounds and their measured activation readings.

{"compound": "CC(C)(C)C1CCN(C(=O)n2ncc(C(O)(c3ccccc3)c3ccccc3)n2)CC1", "activation, %": 6.21}
{"compound": "OC(CCN1CCCC1)(c1ccccc1)C1CCCCC1 (configuration not stated)", "activation, %": 20.1}
{"compound": "O=S(=O)(NCCNCC=Cc1ccc(Br)cc1)c1cccc2cnccc12", "activation, %": -19.7}
{"compound": "O=C(CC1C(=O)Nc2ccccc21)OC[C@H]1O[C@@H](OCCc2ccc(O)cc2)[C@H](O)[C@@H](O)[C@@H]1O (some centres not stated)", "activation, %": 0}
{"compound": "COc1cc(CCc2ccccc2)c(C(=O)O)c2c1CC(C(C)(C)O)O2 (configuration not stated)", "activation, %": -13}
{"compound": "C=CC(C)(C)c1[nH]c2cc3c(cc2c1CC1NC(=O)C2CCCN2C1=O)C=CC(C)(C)O3 (configuration not stated)", "activation, %": -13}
{"compound": "NCC(O)(CS(=O)(=O)O)c1ccc(Cl)cc1 (configuration not stated)", "activation, %": -28.8}
{"compound": "NC(=O)c1ncn([C@@H]2O[C@H](CO)[C@@H](O)[C@@H]2O)c1O", "activation, %": -3.98}
{"compound": "NC(C(=O)N[C@@H]1C(=O)N2C(C(=O)O)=C(Cl)CS[C@H]12)c1ccccc1 (some centres not stated)", "activation, %": 6.44}
{"compound": "Nc1ncnc2c1c(-c1ccc(Oc3ccccc3)cc1)nn2[C@@H]1CCCNC1", "activation, %": 20}
{"compound": "Cn1c(Nc2ccc(C(F)(F)F)cc2)nc2cc(Oc3ccnc(-c4ncc(C(F)(F)F)[nH]4)c3)ccc21", "activation, %": 0.151}
{"compound": "COc1cc2c(cc1OC)[C@@H]1Cc3ccc(OC)c(OC)c3CN1CC2", "activation, %": 19.3}
{"compound": "CC(C(=O)O)c1cccc(Oc2ccccc2)c1 (configuration not stated)", "activation, %": 32.2}
{"compound": "CC(C)(C)c1ccc(-c2nc3c(N4CCN(Cc5ccc6nccnc6c5)CC4)cccc3[nH]2)cc1", "activation, %": -2.86}
{"compound": "OC/C=C/C=C/[C@H]1Cc2cc(O)cc(O)c2O1", "activation, %": 0.893}
{"compound": "CCCN(CCc1cccs1)[C@H]1CCc2c(O)cccc2C1", "activation, %": 5.08}
{"compound": "C=C[C@@]1(C)CCC2C(=CCC3[C@]2(C)CCC[C@@]3(C)C(=O)O)C1 (some centres not stated)", "activation, %": -12.2}
{"compound": "CC1=CC(=O)CC(C)(CO[C@@H]2O[C@H](CO)[C@@H](O)[C@H](O)[C@H]2O)C1(O)/C=C/C(C)=C/C(=O)O (some centres not stated)", "activation, %": 0.893}
{"compound": "N#C[C@@H]1C[C@@H]2C[C@@H]2N1C(=O)[C@@H](N)C12CC3CC(CC(O)(C3)C1)C2", "activation, %": -3}
{"compound": "C[C@@H]1CCC2C(C)(C)[C@H](O)CC[C@]2(C)[C@@]12Cc1c(O)cc3c(c1O2)CN([C@@H](CCC(=O)O)C(=O)O)C3=O (some centres not stated)", "activation, %": -9.16}
{"compound": "C[C@H]1CC[C@@H]2N(C1)C[C@@H]1[C@H]([C@@H](O)[C@H](O)[C@]3(O)[C@H]1C[C@@]14OC5(O)[C@@H](C[C@@H](O)[C@@H]31)[C@]4(C)CC[C@@H]5O)[C@]2(C)O", "activation, %": 0}
{"compound": "c1ccc2c(c1)CCc1ccccc1N2", "activation, %": 10.7}
{"compound": "O=c1cc(CO)occ1O", "activation, %": -9.6}
{"compound": "O=C(c1cc(Cc2n[nH]c(=O)c3ccccc23)ccc1F)N1CCCNCC1", "activation, %": -4.3}
{"compound": "C/C(=C\\CO)CC/C=C(\\C)C(=O)O[C@H]1[C@H](OC2OC=C(C(=O)O)C3CCC(C)(O)C23)O[C@H](CO)[C@@H](O)[C@@H]1O (some centres not stated)", "activation, %": -22.3}
{"compound": "O=C(CN1CCN(Cc2ccc3c(c2)OCO3)CC1)N1c2ccccc2Sc2ccccc21", "activation, %": 1.69}
{"compound": "Cc1cc(C)c(-n2cc(C)c3c(Cl)nc(C)nc32)c(C)c1", "activation, %": -3.82}
{"compound": "CC1OC(OC2CCC3(C)C(CCC4(C)C3C=CC35OCC6(CCC(C)(C)CC63)CCC45C)C2(C)CO)C(OC2OC(CO)C(O)C(O)C2O)C(O)C1OC1OC(CO)C(O)C(O)C1O (configuration not stated)", "activation, %": 14.3}
{"compound": "COC(=O)C1=CO[C@@H](O[C@@H]2O[C@H](CO)[C@@H](O)[C@H](O)[C@H]2O)[C@@H]2[C@@H](C)[C@@H](O)C(O)[C@H]12 (some centres not stated)", "activation, %": 14.5}
{"compound": "Cc1cc(CCCOc2c(C)cc(-c3noc(C(F)(F)F)n3)cc2C)on1", "activation, %": 19.8}
{"compound": "C[C@H](Oc1ccc(S(C)(=O)=O)cc1C(=O)N1CCN(c2ncc(C(F)(F)F)cc2F)CC1)C(F)(F)F", "activation, %": 4.46}
{"compound": "C=CC(C)(O)CC/C=C(\\C)COC1O[C@H](CO)[C@@H](O)[C@H](O)[C@H]1O (some centres not stated)", "activation, %": -14.5}
{"compound": "O=C1NC(Cc2c[nH]c3ccccc23)C(=O)NC1Cc1cnc[nH]1 (configuration not stated)", "activation, %": -5.36}
{"compound": "CN(C)S(=O)(=O)c1ccc(NC(=S)N2CCC(C(O)(c3ccccc3)c3ccccc3)CC2)cc1", "activation, %": -6.68}
{"compound": "Cc1nc(N)ncc1-c1nc(N2CCOCC2)c2sc(C(C)(C)O)cc2n1", "activation, %": 9.3}
{"compound": "CCC(CC)[C@H](NC(C)=O)[C@@H]1[C@H](O)[C@@H](C(=O)O)C[C@@H]1N=C(N)N", "activation, %": 7.36}
{"compound": "CC1=CC2/C=C(\\C)CCC3OC(C)(C)OC3CCC(=O)C23C(=O)NC(CC(C)C)C3C1C (configuration not stated)", "activation, %": -10.7}
